# Experimental target: T1, Anti-CD28 scFv (VH - linker 1 - VL) (biotinylated (site not stated))
# T1 construct: Biotinylated anti-CD28 scFv captured on neutravidin coated plates in the panning ELISA
# T1 sequence (scFv, as listed by the source): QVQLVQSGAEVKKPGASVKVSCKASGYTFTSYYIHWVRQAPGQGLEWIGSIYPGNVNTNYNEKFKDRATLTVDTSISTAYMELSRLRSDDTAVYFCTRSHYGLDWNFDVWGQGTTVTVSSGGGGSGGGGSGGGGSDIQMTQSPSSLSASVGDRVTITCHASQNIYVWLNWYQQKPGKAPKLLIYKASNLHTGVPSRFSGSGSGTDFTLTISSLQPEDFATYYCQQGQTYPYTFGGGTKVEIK
# Assay details: phage ELISA; biotinylated anti-CD28 scFv on neutravidin plate, clonal phage supernatant, anti-M13-HRP;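 further: before the phage were added, wells were pre-incubated with soluble CD28 protein in blocking buffer, or with blocking buffer alone, and were not washed in between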
Value type: CD28 scFv signal
The reply should be a number, written without any unit.

Reference set, count: 10
{"columns": ["Binder", "Value type", "Observed value"],
 "data": [
  ["MDWCPRDLWDECFN (Clonal phage of the Peptide-9 library) [Phage-310]", "CD28 scFv signal", 2.37],
  ["MDWCPTYLWNECFN (Clonal phage of the Peptide-9 library) [Phage-320]", "CD28 scFv signal", 2.24],
  ["MDWCPMFLWDECFN (Clonal phage of the Peptide-9 library; also called the position column gives F at position 7)) [Phage-318]", "CD28 scFv signal", 2.29],
  ["MDWCPRHLWHECFT (Clonal phage of the Peptide-9 library) [Phage-317]", "CD28 scFv signal", 2.3],
  ["MDWCPRDLWYQCFN (Clonal phage of the Peptide-9 library) [Phage-311]", "CD28 scFv signal", 2.35],
  ["MDWCPTYLWHVCFS (Clonal phage of the Peptide-9 library) [Phage-315]", "CD28 scFv signal", 2.32],
  ["MDWCPRSLWNYCFN (Clonal phage of the Peptide-9 library) [Phage-313]", "CD28 scFv signal", 2.35],
  ["MDWCPTDLWHECFA (Clonal phage of the Peptide-9 library) [Phage-333]", "CD28 scFv signal", 2.07],
  ["MDWCPRFLWDVCFN (Clonal phage of the Peptide-9 library; also called the position column gives F at position 7)) [Phage-330]", "CD28 scFv signal", 2.14],
  ["MDWCPRHLWIECFN (Clonal phage of the Peptide-9 library) [Phage-322]", "CD28 scFv signal", 2.21]
]}

Query: Give a short answer stating reported CD28 scFv signal for MDWCPAYLWDECFA (Clonal phage of the Peptide-9 library) [Phage-325] .
Response: 2.17

Query: Give a short answer stating reported CD28 scFv signal for MDWCPIHLWNECFN (Clonal phage of the Peptide-9 library) [Phage-314] .
Response: 2.35

Query: Give a short answer stating reported CD28 scFv signal for IDWCPRALWDACLA (Clonal phage of the Peptide-9 library) [Phage-332] .
Response: 2.1

Query: Give a short answer stating reported CD28 scFv signal for MDWCPRHLWYECFS (Clonal phage of the Peptide-9 library) [Phage-324] .
Response: 2.17

Query: Give a short answer stating reported CD28 scFv signal for MDWCPRDLWYVCFA (Clonal phage of the Peptide-9 library) [Phage-321] .
Response: 2.22

Query: Give a short answer stating reported CD28 scFv signal for MDWCPRALWDHCFN (Clonal phage of the Peptide-9 library) [Phage-328] .
Response: 2.15
